- protocolSummary: in vivo
- measurementSetup: rat, ip, 110 pmol/kg/min
Square brackets hold non-standard residues; d marks the D form. Peptide text beside a SMILES is read from it. dHyp = O=C(O)[C@H]1C[C@H](O)CN1
measurementLabel: level at time molar at 504 h (nM)
Response body: numeric value in nM, unit text excluded.

So, CC(=O)N[C@H](Cc1ccc(O)cc1)C(=O)N1CCC[C@@H]1C(=O)N1C[C@@H](O)C[C@@H]1C(=O)NCC(=O)N[C@H](C)C(=O)NCC(N)=O [Compound 1, Ac-D-Tyr-D-Pro-D-4Hyp-Gly-D-Ala-Gly-NH2] (Ac-[dY][dP][dHyp]G[dA]G-NH2) ? Its level at time molar at 504 h was 5.7
